Provenance of the data: patent US7803795B2

experimental.system: TANK-2 enzyme (Homo sapiens)
Sequence (Q9H2K2 1-1166): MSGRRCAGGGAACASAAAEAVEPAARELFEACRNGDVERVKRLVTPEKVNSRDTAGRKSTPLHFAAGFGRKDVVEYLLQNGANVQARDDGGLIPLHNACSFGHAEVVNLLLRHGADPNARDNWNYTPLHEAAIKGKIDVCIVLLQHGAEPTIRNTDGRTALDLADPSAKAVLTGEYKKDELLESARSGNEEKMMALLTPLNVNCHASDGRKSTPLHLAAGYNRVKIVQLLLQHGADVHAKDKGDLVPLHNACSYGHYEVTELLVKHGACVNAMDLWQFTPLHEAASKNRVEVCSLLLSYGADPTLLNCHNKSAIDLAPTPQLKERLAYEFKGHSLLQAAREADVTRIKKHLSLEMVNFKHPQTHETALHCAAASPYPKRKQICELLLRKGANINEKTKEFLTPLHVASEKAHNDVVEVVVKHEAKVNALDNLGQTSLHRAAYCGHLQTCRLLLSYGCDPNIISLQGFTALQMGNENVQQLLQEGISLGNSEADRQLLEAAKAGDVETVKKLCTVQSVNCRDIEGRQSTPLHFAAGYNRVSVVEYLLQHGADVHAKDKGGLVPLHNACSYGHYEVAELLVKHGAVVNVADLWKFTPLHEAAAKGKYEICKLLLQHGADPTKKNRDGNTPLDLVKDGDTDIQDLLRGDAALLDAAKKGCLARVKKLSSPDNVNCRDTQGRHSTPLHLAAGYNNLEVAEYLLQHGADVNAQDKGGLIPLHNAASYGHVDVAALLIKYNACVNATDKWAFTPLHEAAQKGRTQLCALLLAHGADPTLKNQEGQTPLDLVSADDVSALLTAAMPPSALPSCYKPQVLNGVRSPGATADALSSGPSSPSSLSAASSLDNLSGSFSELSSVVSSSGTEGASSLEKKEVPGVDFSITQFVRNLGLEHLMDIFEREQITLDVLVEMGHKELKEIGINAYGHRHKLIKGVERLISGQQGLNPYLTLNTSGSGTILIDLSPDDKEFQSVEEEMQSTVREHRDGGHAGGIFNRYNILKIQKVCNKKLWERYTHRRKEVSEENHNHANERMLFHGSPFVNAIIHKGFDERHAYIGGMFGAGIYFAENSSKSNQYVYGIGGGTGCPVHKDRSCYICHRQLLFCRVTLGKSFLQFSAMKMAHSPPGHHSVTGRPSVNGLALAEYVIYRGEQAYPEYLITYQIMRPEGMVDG
assay.metric: pIC50
The meaning of pIC50 here: minus log10 of the concentration in molar units.

Entry under review: O=c1[nH]nc(C2CCN(Cc3ccccc3)CC2)c2ccccc12 . Reported pIC50?
5.07

Entry under review: CCOC(=O)N1CCN(c2nnc(Cl)c3ccccc23)CC1 . Reported pIC50?
5.04

Entry under review: N#CCN1CCC(c2n[nH]c(=O)c3ccccc23)CC1 . Reported pIC50?
5.02

Entry under review: Clc1nnc(N2CCN(c3ccccc3)CC2)c2ccccc12 . Reported pIC50?
5.05

Entry under review: CCOC(=O)N1[C@@H]2CC[C@H]1C[C@H](Nc1nnc(Cl)c3ccccc13)C2 . Reported pIC50?
5.36

Entry under review: Cc1nnc(N2CCN(CCn3c(=O)[nH]c4ccccc4c3=O)CC2)c2ccccc12 . Reported pIC50?
5.43

Entry under review: Fc1ccc(C(CCCN2CCN(c3nnc(Cl)c4ccccc34)CC2)c2ccc(F)cc2)cc1 . Reported pIC50?
5.29
